# RP-LC retention time annotations
Assay: gradient 5% acetonitrile 3 min, to 50% in 2 min, to 85% in 15 min, held 3 min, 100 µL/min
Conditions: column: Zorbax Extend-C18 2.1 x 50 mm; eluents: water / acetonitrile, 0.1% formic acid
measured-quantity: RP-LC retention time (s)

# molecule, measured-quantity, display-unit, value-measured
rows = [
    ("CN(C)C(=O)CN1C(=O)CCSc2ccccc21", "RP-LC retention time", "s", 665),
    ("CN(C)c1ccc(CNC(=O)[C@@]23CCCC[C@H]2N(CCc2ccccc2)C(=O)CC3)cc1", "RP-LC retention time", "s", 634),
    ("Cc1nnc(-c2ccc3ccn(CC(=O)NCc4ccccc4)c3c2)o1", "RP-LC retention time", "s", 1010),
    ("CN1CCn2cc(S(=O)(=O)Nc3cccc(F)c3)cc2C1=O", "RP-LC retention time", "s", 687),
    ("Cc1cc(C)cc(NC(=O)C2CCCN2S(=O)(=O)c2cc3c(cc2C)NC(=O)C(C)O3)c1 (stereo not given)", "RP-LC retention time", "s", 852),
    ("CC(C)c1ccc(-n2nc(N3CCN(C(=O)CCC(=O)N4CCOCC4)CC3)ccc2=O)cc1", "RP-LC retention time", "s", 695),
    ("CCN1C(=O)c2cc(S(=O)(=O)NCc3cccc(Cl)c3)ccc2Oc2cccnc21", "RP-LC retention time", "s", 1030),
    ("Cc1ncsc1CN1CC(c2ncc(C)n2Cc2ccccc2)C1", "RP-LC retention time", "s", 559),
    ("COCCNC(=O)Nc1nnc(-c2ccccc2Cl)o1", "RP-LC retention time", "s", 647),
    ("CCCN(CCC)S(=O)(=O)c1ccc(Br)c(OC)c1", "RP-LC retention time", "s", 1060),
]

* * *

# RP-LC retention time annotations
Assay: gradient 5% acetonitrile 3 min, to 50% in 2 min, to 85% in 15 min, held 3 min, 100 µL/min
Conditions: column: Zorbax Extend-C18 2.1 x 50 mm; eluents: water / acetonitrile, 0.1% formic acid
measured-quantity: RP-LC retention time (s)

# compound, display-unit, value-measured
records = [
    ("Cc1cc(-c2ccc(S(=O)(=O)N3CCC(C(=O)NCc4ccccc4C)CC3)o2)n[nH]1", "s", 816),
    ("O=C(CN1C(=O)C2CCCCN2c2ccc(S(=O)(=O)N3CCCCC3)cc21)NC1CCCC1 (stereo not given)", "s", 980),
    ("CCCN1CCN(C(=O)C2CCN(S(=O)(=O)c3ccc4c(c3)sc(=O)n4CC)CC2)CC1", "s", 623),
    ("CCCNC(=O)C1CCCN(c2ccc(SCC(=O)Nc3cc(C)c(Cl)cc3OC)nn2)C1 (stereo not given)", "s", 838),
    ("COc1ccccc1-c1ccc(=O)n(Cc2nc(-c3ccc(F)cc3)no2)n1", "s", 995),
    ("O=C1CC(c2ccccc2)N(S(=O)(=O)c2cccc3nsnc23)CCCCCN1 (stereo not given)", "s", 848),
    ("Cc1cc(=O)oc2c3c(cc(OCC(=O)N[C@H](CC(C)C)C(=O)O)c12)OC(C)(C)CC3", "s", 892),
    ("COc1ccc(NC(=O)N2[C@H]3CC[C@@H]2c2cncnc2C3)cc1F", "s", 649),
    ("CCOc1ccccc1NC(=O)Cc1csc2nc(-c3ccc(OC)c(OC)c3)cn12", "s", 793),
    ("Cc1ccc(-c2noc(-c3cccc(S(=O)(=O)Nc4cccnc4)c3)n2)cc1", "s", 941),
    ("CCCNC(=O)N1CCCCCC1CN1CCC(OC)CC1 (stereo not given)", "s", 604),
    ("Cc1c(NC(=O)C(C)C)c(=O)n(-c2ccccc2)n1C", "s", 745),
    ("CCN(CC)S(=O)(=O)c1ccc2c(c1)CC(C(=O)NCCN(C)C)N2C(C)=O (stereo not given)", "s", 645),
    ("CCn1cc(C(=O)NCc2ccc(C)o2)c2cccnc21", "s", 742),
    ("O=C(O)c1ccc(N2CCCCC2)cc1O", "s", 828),
    ("COc1ccccc1NC(=O)C1CCN(S(=O)(=O)c2cc(C(=O)N3CCCC3)n(C)c2)CC1", "s", 758),
    ("O=S(=O)(NCC#CCN1CCc2ccccc2C1)c1cccs1", "s", 558),
    ("COCCc1noc(C2CN(S(=O)(=O)c3ccccc3)C2)n1", "s", 751),
    ("Cc1cc(C)n(CCN2CCN(C(=O)C3CCC3)CC2)n1", "s", 546),
    ("O=C(NCCN1CCOCC1)c1ccc(-c2ccc(N3CCCCCC3)nc2)cc1", "s", 566),
]
